# Subject Of Test: NT650-Nps5 (recombinant SARS-CoV-2 main protease Nsp5) (Severe acute respiratory syndrome coronavirus 2)
# Experiment Description: biochemical
Quantity Name: pKd
Kindly note that pKd refers to -log10 of the concentration in mol/L and answer with the value alone.

### Prompt Which pKd reading was recorded for the compound O=c1oc2c(O)c(O)cc3c(=O)oc4c(O)c(O)cc1c4c23 [Ellagic acid (7), ellagic acid] ?
### Response 6.01
